Recorded normalized growth values for a group of molecules are listed next.
- experiment: chemical genetic growth profiling, strain panel (AID 1159580);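 also: tested at 20 µM; growth read once vehicle control cultures reached saturation at 30 °C; 1 = growth at the plate median or of vehicle wells; lower values mean less growth of the strain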
- conditions: S. cerevisiae deletion strains, growth OD, locus YGR078C, strain PAC10, stronger effect = lower value
The whole screen tested about 5,500 compounds, of which about 2,000 (36%) were called active. Roughly 18% stayed inconclusive and do not appear here. Some of the results follow.
// keep it numeric: no unit symbol after the value

Qu. Given the entry O=c1[nH]c(=O)c2nc3ccccc3nc2[nH]1 , report its measured normalized growth.
Ans. 1.01

Qu. Given the entry COC(=O)C[C@H]1C2(C)CC34OC5(C)O[C@@]6([C@H](OC(C)=O)C(OC(C)=O)[C@]7(C)C(/C(=C(/O)C(C)C)C(=O)O[C@H]7c7ccoc7)[C@@]6(O5)[C@H](OC(C)=O)[C@@]3(O)C2OC(=O)C(C)C)[C@]14C (stereo partly drawn) , report its measured normalized growth.
Ans. 1

Qu. Given the entry CCC(C)C(=O)OC1CC2(C)C(c3ccoc3)OC(=O)CC23OC2(C)OC34C(OC(=O)C(C)C)C3(O)C(OC(=O)C5(C)OC5C)C5(C)CC3(O)C(C)(C5C(=O)OC)C14O2 (stereo not drawn) , report its measured normalized growth.
Ans. 1.02

---

Recorded normalized growth values for a group of compounds are listed next.
- experiment: chemical genetic growth profiling, strain panel (AID 1159580);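 also: tested at 20 µM; growth read once vehicle control cultures reached saturation at 30 °C; 1 = growth at the plate median or of vehicle wells; lower values mean less growth of the strain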
- conditions: S. cerevisiae deletion strains, growth OD, strain NNK1, stronger effect = lower value
The campaign covered roughly 5,500 compounds. About 2,000 (36%) were called active. About 18% were inconclusive and are not listed. The list shows a part of the results.
// keep it numeric: no unit symbol after the value

| smiles-data | normalized growth |
| --- | --- |
| O=C(NCc1ccc(Cl)c(Cl)c1)c1cccnc1OCC(F)(F)F | 0.959 |
| O=C(Nc1cccc(C(F)(F)F)c1)c1cncc(C#Cc2ccccc2)c1 | 0.974 |
| Cc1ccc(Nc2ccnc3cc(Cl)ccc23)cc1F | 0.981 |
| Cc1cc(C(=O)NNS(=O)(=O)c2ccc(F)c(Cl)c2)nn1-c1c(Cl)cc(Cl)cc1Cl | 0.986 |

Qu. Given the entry Cc1cc(C)cc(Sc2ccc3nnc(-c4ccccc4)n3n2)c1 , report its measured normalized growth.
Ans. 0.98

Qu. Given the entry O=C(ON=C1CCCCC1)c1ccc([N+](=O)[O-])cc1 , report its measured normalized growth.
Ans. 0.972

Qu. Given the entry C/C(Cc1nnn(-c2cc(C)on2)n1)=N/OC(=O)Nc1ccc(Cl)cc1 , report its measured normalized growth.
Ans. 0.967

---

- experiment: chemical genetic growth profiling, strain panel (AID 1159580);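 also: tested at 20 µM; growth read once vehicle control cultures reached saturation at 30 °C; 1 = growth at the plate median or of vehicle wells; lower values mean less growth of the strain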
- conditions: S. cerevisiae deletion strains, growth OD, locus YLR102C, strain apc9
Among all 5,500 compounds or so, about 2,000 (36%) were called active. Another 18% or so got no clear call; they are omitted. Cut-off read from the data, not from the text of the source: active = normalized growth mostly below about 0.91 (no sharp cut-off); inconclusive = no clear call, values can overlap the other calls; inactive = mostly above about 0.92. Some of the results follow.
The reply should be one of these categories: true (1) = active, false (0) = inactive

Observe how each entry below is paired with its result.
| compound | category-label |
| --- | --- |
| NC(=O)c1ccc[n+]([C@@H]2O[C@H](COP(=O)([O-])OP(=O)(O)OC[C@H]3O[C@@H](n4cnc5c(N)ncnc54)[C@H](OP(=O)(O)O)[C@@H]3O)[C@@H](O)[C@H]2O)c1 | false (0) |
| N[C@@H](Cc1ccc(N(CCCl)CCCl)cc1)C(=O)O | false (0) |
| C[C@@H]1CC(Cl)CC[C@H]1C(=O)OC(C)(C)C (some centres undefined) | false (0) |
| COc1ccc2c(c1)OC1(O)COc3cc(OC)c(OC)cc3C1=C2 (centres undefined) | false (0) |
| Nc1nc(=S)c2[nH]cnc2[nH]1 | false (0) |

Qu. In this assay, the call recorded for CC[C@@]1(O)C[C@H](O[C@H]2C[C@H](N(C)C)[C@H](O)[C@H](C)O2)c2c(cc3c(c2O)C(=O)c2c(O)ccc(O)c2C3=O)[C@H]1C(=O)OC was what?
Ans. true (1)

Qu. In this assay, the call recorded for C=C[C@@](C)(O)CCC1C(=C)C[C@H](OC(C)=O)C2C(C)(C)CCCC12C (some centres undefined) was what?
Ans. false (0)

Qu. In this assay, the call recorded for CC[C@H]1OC(=O)[C@H](C)[C@@H](O[C@H]2C[C@@](C)(OC)[C@@H](O)[C@H](C)O2)[C@H](C)[C@@H](O[C@@H]2O[C@H](C)C[C@H](N(C)C)[C@H]2O)[C@](C)(OC)C[C@@H](C)C(=O)[C@H](C)[C@@H](O)[C@]1(C)O was what?
Ans. false (0)

Qu. In this assay, the call recorded for C=C[C@@](C)(O)CCC1C(=C)C[C@H](O)C2C(C)(C)CCCC12C (some centres undefined) was what?
Ans. false (0)

Qu. In this assay, the call recorded for CNC(=O)O/N=C(\C)SC was what?
Ans. false (0)

Origin of values: PubChem BioAssay AID1159580
